The measurements presented in this section are drawn from patent US8501752B2.

Measured IC50 of individual entries
# Tested on: NCI/ADR cells
# experimentalProtocol: Cytotoxicity, NCI/ADR cells that overexpress P-glycoprotein
# conditionInfo: read-out: Cytotoxicity IC50, NCI/ADR; mean ± SEM for 3 experiments
Respond numerically; units are µM and should not be typed.

Please review the entries below; each comes with its answer.
> print(dat)
                                   compound         target  displayunit  reading
1  COc1ccccc1CCc1cn(Cc2ccccc2)c2nc(N)nc(C)c12 [Compound 4]  NCI/ADR cells           µM      2.7
2  COc1ccc(CCc2cn(Cc3ccccc3)c3nc(N)nc(C)c23)cc1 [Compound 2]  NCI/ADR cells           µM     21.7
3  COc1cccc(CCc2cn(Cc3ccccc3)c3nc(N)nc(C)c23)c1 [Compound 3]  NCI/ADR cells           µM      5.7
4  COc1cc(CCc2cn(Cc3ccccc3)c3nc(N)nc(C)c23)cc(OC)c1OC [Compound 1]  NCI/ADR cells           µM     0.25

**Query** // query IC50 value for entry Cc1nc(N)nc2c1c(CCc1ccccc1)cn2Cc1ccccc1 [Compound 5]
**Result** 18.2

====

# Tested on: MCF-7/VP cells
# experimentalProtocol: Cytotoxicity, MCF-7/VP cells that overexpress MRP1
# conditionInfo: read-out: Cytotoxicity IC50, MCF-7/VP; mean ± SEM for 3 experiments
Measured pIC50 of individual entries
Just the number, please; pIC50 means minus log10 of the concentration in mol/L.

> print(dat)
                            smilesstructure          target  readoutlabel  reading
1  COc1ccccc1CCc1cn(Cc2ccccc2)c2nc(N)nc(C)c12  MCF-7/VP cells         pIC50     5.59
2  COc1cccc(CCc2cn(Cc3ccccc3)c3nc(N)nc(C)c23)c1  MCF-7/VP cells         pIC50     4.66
3  COc1ccc(CCc2cn(Cc3ccccc3)c3nc(N)nc(C)c23)cc1  MCF-7/VP cells         pIC50     4.64
4  COc1cc(CCc2cn(Cc3ccccc3)c3nc(N)nc(C)c23)cc(OC)c1OC  MCF-7/VP cells         pIC50     6.60

Turning now to a further compound:
**Query** // query pIC50 value for entry Cc1nc(N)nc2c1c(CCc1ccccc1)cn2Cc1ccccc1
**Result** 3.93

====

Measured cell cycle distribution, G9/G1 of individual entries
# Test system: HL-60 human promyelocytic leukemia cells
# experimentalProtocol: Flow cytometric cell cycle phase distribution
# Assay type: cell-based
# conditionInfo: percentage of HL-60 cells; 24 hours treatment
The answer should be a number; do not append a unit.

Please review the entries below; each comes with its answer.
smilesStructure	cell cycle distribution, G9/G1
COc1cc2c(c(OC)c1OC)-c1ccc(OC)c(=O)cc1[C@@H](NC(C)=O)CC2	84.1
CC(=O)O[C@H]1C(=O)[C@@]2(C)[C@H]([C@H](OC(=O)c3ccccc3)[C@]3(O)C[C@H](OC(=O)[C@H](O)[C@@H](NC(=O)c4ccccc4)c4ccccc4)C(C)=C1C3(C)C)[C@]1(OC(C)=O)CO[C@@H]1C[C@@H]2O	67.3
COc1cc(CCc2cn(Cc3ccccc3)c3nc(N)nc(C)c23)cc(OC)c1OC	80.0

Turning now to a further molecule:
**Query** // query cell cycle distribution, G9/G1 value for entry CC[C@]1(O)C[C@@H]2CN(CCc3c([nH]c4ccccc34)[C@@](C(=O)OC)(c3cc4c(cc3OC)N(C)[C@H]3[C@@](O)(C(=O)OC)[C@H](OC(C)=O)[C@]5(CC)C=CCN6CC[C@]43[C@@H]65)C2)C1
**Result** 83.3
